All figures here come from patent US5444174A.

Measured MIC, listed per entry for reference.
System: B. catarrhalis W-0500
Test: Antibacterial activity (MIC), agar plate dilution method
Type: cell-based
Conditions: Moraxella catarrhalis, W0500; 37° C., 20 hours; blood agar seed culture; B. catarrhalis W-0500; read-out: Antibacterial activity (MIC)
Supply the numeric figure in mg/L, leaving out any unit text.

Past entries and their recorded results:
smiles_entry=CCC(=O)O[C@@H]1CC(=O)O[C@H](C)C/C=C/C=C/C(=O)[C@H](C)C[C@H](CC=O)[C@H](O[C@@H]2O[C@H](C)[C@@H](O[C@H]3C[C@@](C)(OC)[C@@H](OCc4ccccc4)[C@H](C)O3)[C@H](N(C)C)[C@H]2O)[C@H]1OC reported_result=1.56
smiles_entry=CCC(=O)O[C@@H]1CC(=O)O[C@H](C)C/C=C/C=C/C(=O)[C@H](C)C[C@H](CC=O)[C@H](O[C@@H]2O[C@H](C)[C@@H](O[C@H]3C[C@@](C)(OC)[C@@H](OCC=C(C)C)[C@H](C)O3)[C@H](N(C)C)[C@H]2O)[C@H]1OC reported_result=1.56

Note: attention shifts to another entry.
## Task Report MIC for CCCCO[C@H]1[C@H](C)O[C@@H](O[C@H]2[C@H](N(C)C)[C@@H](O)[C@H](O[C@H]3[C@@H](CC=O)C[C@@H](C)C(=O)/C=C/C=C/C[C@@H](C)OC(=O)C[C@@H](OC(=O)CC)[C@@H]3OC)O[C@@H]2C)C[C@@]1(C)OC please.
## Result 0.78
